# Target desc: Vent (3′-exo-) DNA polymerase (Thermococcus litoralis, UniProt P30317, D141A/DEL1082-1471/DEL495-1032/E143A)
# Construct: purchased
# Sequence (P30317 other isoform, or with tags, fused parts or gaps D141A/E143A/DEL495-1032/DEL1082-1471): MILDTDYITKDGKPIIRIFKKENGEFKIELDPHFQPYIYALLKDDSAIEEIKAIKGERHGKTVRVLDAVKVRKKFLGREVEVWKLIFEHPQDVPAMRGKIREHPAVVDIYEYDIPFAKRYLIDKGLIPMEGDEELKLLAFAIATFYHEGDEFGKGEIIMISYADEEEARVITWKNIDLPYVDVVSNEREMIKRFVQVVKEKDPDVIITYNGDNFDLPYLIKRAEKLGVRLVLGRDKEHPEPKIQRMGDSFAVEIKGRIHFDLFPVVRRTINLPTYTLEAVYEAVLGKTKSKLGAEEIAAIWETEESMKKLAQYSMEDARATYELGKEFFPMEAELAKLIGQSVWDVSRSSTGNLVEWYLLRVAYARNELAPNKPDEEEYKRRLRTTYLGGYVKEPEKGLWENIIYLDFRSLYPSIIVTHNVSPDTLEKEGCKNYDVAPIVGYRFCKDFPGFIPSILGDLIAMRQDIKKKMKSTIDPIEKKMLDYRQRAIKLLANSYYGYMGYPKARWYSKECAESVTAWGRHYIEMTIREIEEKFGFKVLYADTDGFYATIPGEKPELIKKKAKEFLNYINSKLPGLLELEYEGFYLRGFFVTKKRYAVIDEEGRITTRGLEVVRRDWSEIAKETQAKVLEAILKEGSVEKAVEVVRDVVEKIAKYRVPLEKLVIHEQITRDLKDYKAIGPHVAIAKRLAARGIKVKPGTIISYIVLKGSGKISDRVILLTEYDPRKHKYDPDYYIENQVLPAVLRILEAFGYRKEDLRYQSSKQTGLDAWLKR
# Protocol description: Polymerase end-point (PEP) assay, Vent (3′-exo-)
# Type: biochemical
Recorded metric: pIC50
Note on units: pIC50 is unitless, being -log10 of a concentration expressed in mol/L.

Ask | I am curious: what pIC50 value has been reported for Nc1ncnc2c1ncn2[C@H]1C[C@H](O)[C@@H](COP(=O)(O)OP(=O)(O)OP(=O)(O)O)O1 [dATP, 2′-deoxyadenosine triphosphate] ?
Reply | 8.80

====

A collection of compounds and their measured IC50
# Target desc: Vent (3′-exo-) DNA polymerase (Thermococcus litoralis, UniProt P30317, D141A/DEL1082-1471/DEL495-1032/E143A)
# Construct: purchased
# Protocol description: Polymerase end-point (PEP) assay, Vent (3′-exo-)
# Format: biochemical
# Stated conditions: Vent (3′-exo-): 72° C.; incorporation concentration at 50%; read-out: IC50 values
Quick note: give the figure in µM, leave out the unit.

Ask | I am curious: what IC50 value has been reported for Nc1ncnc2c1ncn2[C@H]1CC[C@@H](COP(=O)(O)OP(=O)(O)OP(=O)(O)O)O1 [ddATP] ?
Reply | 0.55

Pending compound:
Ask | I am curious: what IC50 value has been reported for O=[N+]([O-])c1ccccc1CNc1ncnc2c1ncn2[C@H]1C[C@H](O)[C@@H](COP(=O)(O)OP(=O)(O)OP(=O)(O)O)O1 [WW1p129] ?
Reply | 0.0021

====

A collection of compounds and their measured pIC50
# Target desc: Bst DNA polymerase (Geobacillus stearothermophilus)
# Construct: purchased
# Sequence (P52026 whole entry): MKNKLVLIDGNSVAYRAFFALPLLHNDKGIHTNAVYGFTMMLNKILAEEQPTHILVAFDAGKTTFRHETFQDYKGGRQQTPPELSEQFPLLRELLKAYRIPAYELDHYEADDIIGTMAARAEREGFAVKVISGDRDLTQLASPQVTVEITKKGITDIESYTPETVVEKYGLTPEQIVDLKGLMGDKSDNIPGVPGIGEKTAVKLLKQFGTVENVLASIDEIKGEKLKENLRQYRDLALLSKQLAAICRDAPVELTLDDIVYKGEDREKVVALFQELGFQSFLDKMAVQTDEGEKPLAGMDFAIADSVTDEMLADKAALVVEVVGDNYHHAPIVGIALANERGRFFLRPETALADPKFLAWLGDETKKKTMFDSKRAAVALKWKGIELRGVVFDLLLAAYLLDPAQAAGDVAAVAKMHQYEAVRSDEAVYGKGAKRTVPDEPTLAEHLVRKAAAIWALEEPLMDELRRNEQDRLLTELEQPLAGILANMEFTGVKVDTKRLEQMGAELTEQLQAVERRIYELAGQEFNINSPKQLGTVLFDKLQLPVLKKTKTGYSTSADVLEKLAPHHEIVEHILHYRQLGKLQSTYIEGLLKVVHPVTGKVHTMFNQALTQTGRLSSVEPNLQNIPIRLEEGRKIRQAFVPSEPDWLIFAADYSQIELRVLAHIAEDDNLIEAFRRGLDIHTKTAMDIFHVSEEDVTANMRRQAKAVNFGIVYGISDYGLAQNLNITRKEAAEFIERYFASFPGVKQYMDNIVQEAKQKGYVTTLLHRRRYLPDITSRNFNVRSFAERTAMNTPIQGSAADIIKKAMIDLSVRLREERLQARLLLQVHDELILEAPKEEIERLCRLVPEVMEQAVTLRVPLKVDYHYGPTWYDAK
# Protocol description: Polymerase end-point (PEP) assay, Bst
# Type: biochemical
# Stated conditions: Table 2; incorporation concentration at 50%; read-out: IC50 values, Bst
Note on units: pIC50 is unitless, being -log10 of a concentration expressed in mol/L.

Ask | Under Bst DNA polymerase (Geobacillus stearothermophilus): pIC50 value of `O=[N+]([O-])c1ccccc1CNc1ncnc2c1ncn2[C@H]1C[C@H](O)[C@@H](COP(=O)(O)OP(=O)(O)OP(=O)(O)O)O1` ?
Reply | 7.41

Ask | Now this one: `O=c1[nH]c(=O)n([C@H]2C[C@H](O)[C@@H](COP(=O)(O)OP(=O)(O)OP(=O)(O)O)O2)cc1COCc1ccccc1[N+](=O)[O-]`
Reply | 6.86

Ask | Now this one: `Nc1nc(OCc2ccccc2[N+](=O)[O-])c2ncn([C@H]3C[C@H](O)[C@@H](COP(=O)(O)OP(=O)(O)OP(=O)(O)O)O3)c2n1`
Reply | 5.42

Pending compound:
Ask | Under Bst DNA polymerase (Geobacillus stearothermophilus): pIC50 value of `O=c1nc(NCc2ccccc2[N+](=O)[O-])ccn1[C@H]1C[C@H](O)[C@@H](COP(=O)(O)OP(=O)(O)OP(=O)(O)O)O1` ?
Reply | 7.24

====

# Target desc: T[…] DNA polymerase (Thermococcus sp., UniProt Q56366, A485L/D141A/E143A/Y409V)
# Sequence (Q56366 whole entry D141A/E143A/Y409V/A485L): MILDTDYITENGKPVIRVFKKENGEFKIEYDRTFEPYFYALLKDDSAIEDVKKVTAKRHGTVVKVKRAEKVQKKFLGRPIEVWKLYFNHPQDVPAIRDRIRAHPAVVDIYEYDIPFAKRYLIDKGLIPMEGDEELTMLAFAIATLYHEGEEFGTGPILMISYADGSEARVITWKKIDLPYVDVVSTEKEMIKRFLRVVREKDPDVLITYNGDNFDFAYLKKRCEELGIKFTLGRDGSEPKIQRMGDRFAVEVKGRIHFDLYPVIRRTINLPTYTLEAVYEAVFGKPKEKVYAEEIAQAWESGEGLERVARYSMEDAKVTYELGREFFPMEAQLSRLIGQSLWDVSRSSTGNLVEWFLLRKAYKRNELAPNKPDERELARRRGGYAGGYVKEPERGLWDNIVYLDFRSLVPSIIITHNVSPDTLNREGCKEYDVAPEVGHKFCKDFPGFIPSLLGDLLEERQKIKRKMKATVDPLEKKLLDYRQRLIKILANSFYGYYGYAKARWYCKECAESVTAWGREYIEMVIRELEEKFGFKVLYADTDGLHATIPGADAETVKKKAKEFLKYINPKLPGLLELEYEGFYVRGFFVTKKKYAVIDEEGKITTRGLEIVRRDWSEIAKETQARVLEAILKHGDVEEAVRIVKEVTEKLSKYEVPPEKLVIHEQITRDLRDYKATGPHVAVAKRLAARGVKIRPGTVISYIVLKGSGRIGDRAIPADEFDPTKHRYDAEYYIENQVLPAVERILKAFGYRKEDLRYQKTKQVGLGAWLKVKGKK
# Protocol description: Polymerase end-point (PEP) assay, Therminator II
# Stated conditions: Therminator II: 75° C.; incorporation concentration at 50%
A collection of molecules and their measured IC50
Quick note: give the figure in nM, leave out the unit.

Field: example entries. Status: answers known.
Ask | I am curious: what IC50 value has been reported for `Nc1ncnc2c1ncn2[C@H]1CC[C@@H](COP(=O)(O)OP(=O)(O)OP(=O)(O)O)O1` ?
Reply | 230

Ask | Now this one: Nc1ncnc2c1ncn2[C@H]1C[C@H](O)[C@@H](COP(=O)(O)OP(=O)(O)OP(=O)(O)O)O1 [dATP, 2′-deoxyadenosine triphosphate]
Reply | 4.4

Pending molecule:
Ask | I am curious: what IC50 value has been reported for `O=[N+]([O-])c1ccccc1CNc1ncnc2c1ncn2[C@H]1C[C@H](O)[C@@H](COP(=O)(O)OP(=O)(O)OP(=O)(O)O)O1` ?
Reply | 7.8
